# testMethodNotes: from Bazaco, J.; Coca, C. (1989). Relation between the partition coefficient (Log Pow) and capacity factor (Log k') derived from reversed-phase HPLC of a series of benzaldehyde derivatives. Ciencia e …
observationType: logP
// keep it numeric: no unit symbol after the value

| smilesEntry | logP |
| --- | --- |
| COc1ccc(C=O)cc1OC | 1.22 |

Moving on to the next molecule.
Documented logP of COc1cccc(C=O)c1 : 1.71

----------
This section presents molecules with their documented logP values.
// keep it numeric: no unit symbol after the value

Documented logP of OC1(c2cccc(Cl)c2)c2ccccc2C2=NCCN21 (stereo not drawn) : 1.85

Documented logP of OC1(c2cccc(I)c2)c2ccccc2C2=NCCN21 (stereo not drawn) : 2.3

Documented logP of OC1(c2cccc(Br)c2)c2ccccc2C2=NCCN21 (stereo not drawn) : 1.97

----------
This section presents compounds with their documented logP values.
// keep it numeric: no unit symbol after the value

Documented logP of CC(=O)OC[C@H]1S[C@@H](n2ccnc2[N+](=O)[O-])[C@H](OC(C)=O)[C@@H](OC(C)=O)[C@@H]1OC(C)=O : 0.63

Documented logP of CC(=O)OC[C@H]1O[C@@H](n2ccnc2[N+](=O)[O-])[C@H](OC(C)=O)[C@@H](OC(C)=O)[C@@H]1OC(C)=O : 0.52

Documented logP of O=[N+]([O-])c1nccn1[C@@H]1O[C@H](CO)[C@@H](O)[C@H](O)[C@H]1O : -1.4

Documented logP of O=[N+]([O-])c1nccn1[C@@H]1S[C@H](CO)[C@@H](O)[C@H](O)[C@H]1O : -0.66

----------
# testMethodNotes: method code SF-HPLC, from PMID: 3219139
# runConditions: pH 9.0
observationType: logD
// keep it numeric: no unit symbol after the value

Documented logD of COC(=O)C1=C(C)NC(C)=C(C(=O)O[C@@H]2CCCN(Cc3ccccc3)C2)[C@@H]1c1cccc([N+](=O)[O-])c1 (relative stereo) : 3.47

----------
# testMethodNotes: method code SF-GLC, from DOI: 10.1023/a:1015803202857, PMID: 2395795
This section presents compounds with their documented logP values.
// keep it numeric: no unit symbol after the value

| compound | logP |
| --- | --- |
| CC(C)=CCN1CC[C@@]2(C)c3cc(O)ccc3C[C@@H]1[C@@H]2C | 3.31 |

Moving on to the next compound.
Documented logP of OC(CCN1CCCCC1)(c1ccccc1)C1CCCCC1 (configuration not stated) : 4.49

----------
# testMethodNotes: method code SF-AS, from DOI: 10.1016/s0022-3565(25)24763-2, PMID: 2019981
# runConditions: pH 7.4
observationType: logD
// keep it numeric: no unit symbol after the value

Documented logD of CCn1cccc(O)c1=O : 0.08

----------
observationType: logP
// keep it numeric: no unit symbol after the value

Documented logP of Nc1ccc(C=Cc2ccc(N)cc2S(=O)(=O)O)c(S(=O)(=O)O)c1 : -1.7

----------
# testMethodNotes: method code SF-AS, from DOI: 10.1021/jm00296a014, PMID: 5418493
This section presents molecules with their documented logP values.
// keep it numeric: no unit symbol after the value

| smilesEntry | result |
| --- | --- |
| O=C(O)C1c2ccccc2Cc2ccccc21 | 2.78 |

Moving on to the next molecule.
Documented logP of CC(C(=O)O)(c1ccccc1)c1ccccc1 : 2.69

----------
# testMethodNotes: method code SF-AS, from PMID: 10944786
# runConditions: pH 7.0
observationType: logD
// keep it numeric: no unit symbol after the value

Documented logD of CCCCOc1cccc(NC(=O)OCN2CCCCC2)c1 : 2.97

----------
# testMethodNotes: from Comini, L.; Núñez Montoya, S.; Argüello, G.; Cabrera, J. (2006). Partition coefficient (log P) determination of anthraquinone derivatives isolated from Heterophyllaea pustulata Hook, f. (Rubiaceae). …
# runConditions: pH 7.4
This section presents compounds with their documented logD values.

| smilesEntry | logD |
| --- | --- |
| COc1c(C)c(O)cc2c1C(=O)c1ccccc1C2=O | 2.83 |

Moving on to the next compound.
Documented logD of Cc1c(O)cc2c(c1O)C(=O)c1ccccc1C2=O : 2.36

----------
# testMethodNotes: method code SF-HPLC, from DOI: 10.1124/dmd.30.12.1497, PMID: 12433825
# runConditions: pH 7.4
observationType: logD
// keep it numeric: no unit symbol after the value

Documented logD of CCOc1ccccc1C(N)=O : 1.34

----------
# testMethodNotes: method code SF, from DOI: 10.1016/0048-3575(89)90162-4
observationType: logP
// keep it numeric: no unit symbol after the value

Documented logP of OC1(c2cc(Cl)ccc2Cl)CCCCC1n1cncn1 (stereo unspecified) : 3.24

----------
observationType: logP

Documented logP of COc1ccc(C(=O)NNC(=O)c2ccc(OC)cc2)cc1 : 1.55

----------
# testMethodNotes: method code SF-AS, from DOI: 10.1021/ja00198a050
observationType: logP

Documented logP of CC(C)(C)c1ccc2c(c1)OCCOCCOCCOCCOCCOCCOCCOCCO2 : 1.89

----------
This section presents compounds with their documented logP values.
// keep it numeric: no unit symbol after the value

See these solved cases before continuing.
| smilesEntry | logP |
| --- | --- |
| NC(=S)N/N=C\c1ccco1 | 1.64 |
| CCS(=O)(=O)CCn1c([N+](=O)[O-])cnc1C | -0.38 |
| NC(=S)N/N=C/c1ccc([N+](=O)[O-])o1 | 1.64 |

Moving on to the next compound.
Documented logP of O=[N+]([O-])c1ccc(/C=N\O)o1 : 0.3

----------
observationType: logP
// keep it numeric: no unit symbol after the value

| smilesEntry | observationType | result |
| --- | --- | --- |
| CC(C)c1ccc(C(=O)O)cc1 | logP | 3.24 |

Documented logP of CCc1ccc(C(=O)O)cc1 : 2.85

----------
observationType: logP
// keep it numeric: no unit symbol after the value

See these solved cases before continuing.
| compound | logP |
| --- | --- |
| CC(C)OC(=O)CS(=O)(=O)c1ccc([N+](=O)[O-])cc1[N+](=O)[O-] | 2.01 |
| COC(=O)CS(=O)(=O)c1ccccc1[N+](=O)[O-] | 0.95 |
| COC(=O)CS(=O)c1ccc([N+](=O)[O-])cc1Cl (centres undefined) | 1.69 |

Documented logP of COC(=O)CSc1ccc([N+](=O)[O-])cc1[N+](=O)[O-] : 2.03

----------
This section presents compounds with their documented logD values.
# testMethodNotes: method code SF-HPLC, from DOI: 10.1016/0168-3659(88)90058-2
# runConditions: pH 7.4

| compound | result |
| --- | --- |
| C#CC1(OC(=O)OCC(O)CO)CCC2C3CCC4=CC(=O)CCC4C3CCC21CC (configuration not stated) | 3.22 |

Moving on to the next compound.
Documented logD of C#CC1(OC(=O)OCCCCC(O)CO)CCC2C3CCC4=CC(=O)CCC4C3CCC21CC (configuration not stated) : 3.75

----------
observationType: logP
// keep it numeric: no unit symbol after the value

Documented logP of Cc1ccc(C(C)C)cc1 : 4.14

----------
# testMethodNotes: method code SF-HPLC, from DOI: 10.1016/0378-5173(85)90011-0
# runConditions: pH 7.4
observationType: logD
// keep it numeric: no unit symbol after the value

Documented logD of O=c1[nH]cnc2[nH]ncc12 : -0.55

----------
This section presents compounds with their documented logP values.
// keep it numeric: no unit symbol after the value

| smilesEntry | observationType | result |
| --- | --- | --- |
| Clc1cc2ccccc2cc1Cl | logP | 4.71 |

Documented logP of Clc1cccc2cccc(Cl)c12 : 4.41

----------
# testMethodNotes: method code SF, from Huang, J.; Leng, X. (1993). Interaction of rat hepatocyte and cytochrome P 450 with pyrethroids in vitro. Dong Wu Xue Bao, 39(4)418-423.
observationType: logP
// keep it numeric: no unit symbol after the value

Documented logP of CC(C)C(C(=O)OC(C#N)c1cccc(Oc2ccccc2)c1)c1ccc(OC(F)F)cc1 (stereo unspecified) : 5.55

----------
# testMethodNotes: method code SF-GLC, from DOI: 10.1016/s0003-2670(00)84505-5
observationType: logP
// keep it numeric: no unit symbol after the value

| smilesEntry | logP |
| --- | --- |
| COc1cc(Cl)c(Cl)c(Cl)c1O | 3.72 |

Documented logP of Oc1c(Cl)cc(Cl)c(Cl)c1Cl : 4.3

----------
This section presents molecules with their documented logP values.
# testMethodNotes: method code SF-HPLC, from DOI: 10.1002/jlac.1995199512306
// keep it numeric: no unit symbol after the value

| molecule | logP |
| --- | --- |
| Cc1cn(C2CC(N=[N+]=[N-])C(COP(=O)(OCc3ccccc3)OCC3OC(n4cc(C)c(=O)[nH]c4=O)CC3N=[N+]=[N-])O2)c(=O)[nH]c1=O (stereo not drawn) | 1.34 |
| Cc1cn(C2CC(N=[N+]=[N-])C(COP(=O)(OCc3ccc(C#N)cc3)OCC3OC(n4cc(C)c(=O)[nH]c4=O)CC3N=[N+]=[N-])O2)c(=O)[nH]c1=O (stereo not drawn) | 0.91 |

Documented logP of Cc1cn(C2CC(N=[N+]=[N-])C(COP(=O)(OCc3cccc([N+](=O)[O-])c3)OCC3OC(n4cc(C)c(=O)[nH]c4=O)CC3N=[N+]=[N-])O2)c(=O)[nH]c1=O (stereo not drawn) : 0.99
